- Test system: 565232-114-T-J1-PDC complex spheroid viability
- PROTOCOL SUMMARY: Anticancer human tumor 565232-114-T-J1-PDC patient-derived bladder carcinoma cell line growth inhibition [CLK]
- DETAILS: second compound 0.0316 µM; first compound 0.3 µM; stronger effect = lower value
OBSERVABLE: viability, T/C (%)
Numbers only, in %.

Hey, can you go through the list below and give me viability, T/C for every item?
1. C=CC(=O)Nc1cc(Nc2nccc(-c3cn(C)c4ccccc34)n2)c(OC)cc1N(C)CCN(C)C + CNC(=O)c1ccc(Nc2nc(OC3CCCC3)c3c(-c4ccc5nc(C)oc5c4)c[nH]c3n2)c(OC)c1
2. C=CC(=O)Nc1cc(Nc2nccc(-c3cn(C)c4ccccc34)n2)c(OC)cc1N(C)CCN(C)C + CN1CCN(c2cc(C(=O)Nc3cc4cc(-c5cnn(C)c5)ccc4cn3)ccn2)CC1
3. NC(=O)C(=Cn1cnc(-c2cc(C(F)(F)F)cc(C(F)(F)F)c2)n1)c1cncnc1 + CN1CCN(c2cc(C(=O)Nc3cc4cc(-c5cnn(C)c5)ccc4cn3)ccn2)CC1
4. NC(=O)C(=Cn1cnc(-c2cc(C(F)(F)F)cc(C(F)(F)F)c2)n1)c1cncnc1 + CNC(=O)c1ccc(Nc2nc(OC3CCCC3)c3c(-c4ccc5nc(C)oc5c4)c[nH]c3n2)c(OC)c1
5. CC(C)CC(NC(=O)C(Cc1ccccc1)NC(=O)c1cnccn1)B(O)O (stereo unspecified) + CN1CCN(c2cc(C(=O)Nc3cc4cc(-c5cnn(C)c5)ccc4cn3)ccn2)CC1
6. CC(C)CC(NC(=O)C(Cc1ccccc1)NC(=O)c1cnccn1)B(O)O (stereo unspecified) + CNC(=O)c1ccc(Nc2nc(OC3CCCC3)c3c(-c4ccc5nc(C)oc5c4)c[nH]c3n2)c(OC)c1

1: 86.1; 2: 83.7; 3: 63; 4: 35.5; 5: 1.27; 6: 1.42

====

- Tested on: 565232-114-T-J1-PDC complex spheroid viability
- PROTOCOL SUMMARY: Anticancer human tumor 565232-114-T-J1-PDC cell line growth inhibition [CLK];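 note: spheroids exposed to compounds for 7 days before readout; 100% = DMSO vehicle wells with luminescence normalized to vehicle control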
- DETAILS: compound 0.316 µM; stronger effect = lower value
Please respond with reported viability, T/C for every item in the list.

CN1CCN(c2cc(C(=O)Nc3cc4cc(-c5cnn(C)c5)ccc4cn3)ccn2)CC1 | 19.9% [middle of 9 runs]
C=CC(=O)N1CCN(c2nc(=O)n(-c3c(C)ccnc3C(C)C)c3nc(-c4c(O)cccc4F)c(F)cc23)C(C)C1 (stereo not drawn) | 91.2%
C=C(F)C(=O)N1CCN(c2nc(OCC3CCCN3C)nc3c2CCN(c2cccc4cccc(Cl)c24)C3)CC1CC#N (stereo not drawn) | 88.9%
CCCS(=O)(=O)Nc1ccc(F)c(C(=O)c2c[nH]c3ncc(-c4ccc(Cl)cc4)cc23)c1F | 101%
COC1C=CCC(C)C(C)S(=O)(=O)NC(=O)c2ccc3c(c2)N(CC2CCC21)CC1(CCCc2cc(Cl)ccc21)CO3 (stereo not drawn) | 79.9%

Hey, can you go through the list below and give me viability, T/C for every item?
1. COc1c(OCCCN2CCOCC2)ccc2c3n(c(=NC(=O)c4cnc(N)nc4)nc12)CCN3
2. CC(Nc1ccc2c(c1)OCCn1cc(N3C(=O)OCC3C(F)F)nc1-2)C(N)=O (stereo not drawn)
3. CNC(=O)c1ccc(Nc2nc(OC3CCCC3)c3c(-c4ccc5nc(C)oc5c4)c[nH]c3n2)c(OC)c1

1. 120%
2. 92.9%
3. 34.4% [middle of 12 runs]
